Test system: Bacillus subtilis ATCC 6633
metric: MIC

Problem: Retrieve MIC measured for CC[C@H](C)[C@H](NC(=O)[C@H](CCCCN)NC(=O)CNC(=O)[C@H](C)NC(=O)[C@@H](NC(=O)[C@H](CCCCN)NC(=O)[C@H](C)NC(=O)[C@@H](NC(=O)[C@H](CCCCN)NC(=O)CNC(=O)[C@H](C)NC(=O)[C@@H](NC(=O)[C@H](CCCCN)NC(=O)[C@H](C)NC(=O)[C@@H](NC(=O)[C@H](CCCCN)NC(=O)CNC(=O)[C@H](C)NC(=O)[C@@H](NC(=O)[C@@H](N)CCCCN)[C@@H](C)CC)[C@@H](C)CC)[C@@H](C)CC)[C@@H](C)CC)[C@@H](C)CC)C(=O)N[C@@H](C)C(=O)O and print it.
Result: 3.88 µM
